Below, each of the compounds is paired with its reported clearance value.
- assay details: Population pharmacokinetic model of plasma atazanavir and ritonavir concentrations, DERIVE study (ATV/r with or without rifampicin)
- experimental conditions: human, plasma, oral, Inter compartmental clearance, typical participant 67 kg, fat‐free mass 42 kg; estimate (95% CI)
Report the figure in mL/min without appending any unit label.

Find the recorded clearance belonging to "COC(=O)N[C@H](C(=O)N[C@@H](Cc1ccccc1)[C@@H](O)CN(Cc1ccc(-c2ccccn2)cc1)NC(=O)[C@@H](NC(=O)OC)C(C)(C)C)C(C)(C)C" and report it.
52.2

Follow-up item: "CC(C)c1nc(CN(C)C(=O)N[C@H](C(=O)N[C@@H](Cc2ccccc2)C[C@H](O)[C@H](Cc2ccccc2)NC(=O)OCc2cncs2)C(C)C)cs1"
26
